Molecular target: native human Bradykinin B1 receptor (Homo sapiens, UniProt P46663)
Construct: which express native human Bradykinin B1 receptor after induction with human IL-10; Coriell Institute
Sequence (P46663 whole entry): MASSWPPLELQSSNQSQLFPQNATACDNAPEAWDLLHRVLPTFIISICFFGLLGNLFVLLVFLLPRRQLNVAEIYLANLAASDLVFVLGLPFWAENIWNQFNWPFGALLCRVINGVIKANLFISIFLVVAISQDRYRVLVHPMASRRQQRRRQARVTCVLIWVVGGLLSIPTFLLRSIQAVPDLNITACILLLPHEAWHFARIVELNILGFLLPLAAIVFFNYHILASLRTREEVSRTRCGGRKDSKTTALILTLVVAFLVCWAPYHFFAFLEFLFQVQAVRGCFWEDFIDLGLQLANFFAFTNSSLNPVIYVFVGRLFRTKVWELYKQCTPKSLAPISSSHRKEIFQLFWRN
Test: Calcium flux Assay (FLIPR) with human fibroblasts expressing Bradykinin B1 receptor (hB1 IMR-90)
Settings: IMR-90 human fibroblasts expressing native Bradykinin B1 receptor
pIC50: −log10 of the molar value.
measured.endpoint: pIC50

compound	pIC50
CCOc1ncc(-c2ccc(NC(=O)C3(c4cccc(Cl)c4)CC3)cc2-c2nnn[nH]2)cc1C [Example 160]	7.57

I: COc1cc(-c2ccc(NC(=O)C3(c4cccc(Cl)c4)CC3)cc2-c2nnn[nH]2)ccc1C(F)(F)F [Example 233]
II: O=C(Nc1ccc(-c2ccc(C(F)(F)F)nc2)c(-c2nnn[nH]2)c1)C1(c2cccc(Cl)c2F)CC1 [Example 138]
Query: Given the listed items, does I or II have the lesser reported pIC50? # answer = label of selected item
Response: II

A: CCOc1ccc(-c2ccc(NC(=O)C3(c4cc(F)ccc4F)CC3)cc2-c2nnn[nH]2)cn1 [Example 83]
B: CC(C)(O)c1ccc(-c2ccc(NC(=O)C3(c4cccc(Cl)c4)CC3)cc2-c2nnn[nH]2)cn1 [Example 340]
Query: Return label of the item with the larger pIC50. Candidates: A , B . Write down the label of the entry you select.
Response: A

---

Biological target: human Bradykinin B1 receptor (Homo sapiens)
Construct: host or cells: CHO-K1
Sequence (P46663 whole entry): as above
Assay: Calcium flux Assay (FLIPR) with recombinant CHO-K1 cells expressing human Bradykinin B1 receptor, in presence (hB1 IC50) or absence (hB1 free IC50) of 0.1% BSA
Assay type: cell-based
Settings: in presence of 0.1% BSA, read-out: hB1 IC50
pIC50: −log10 of the molar value.
measured.endpoint: pIC50

Look over these answered cases.
chemical.structure	pIC50
COc1ccc(-c2ccc(NC(=O)C3(Cc4ccccc4)CC3)cc2-c2nnn[nH]2)cc1OC	6.29
COc1ccc(-c2ccc(NC(=O)C3(c4ccc(F)c(C)c4)CC3)cc2-c2nnn[nH]2)cc1OC	7.30
COc1ccc(-c2cc(F)c(NC(=O)C3(c4ccc(Cl)cc4)CC3)cc2-c2nnn[nH]2)cc1OC	6.08

a: COc1ccc(-c2ccc(NC(=O)C3(c4cccc(F)c4C)CC3)cc2-c2nnn[nH]2)cc1OC
b: CCOc1cncc(-c2ccc(NC(=O)C3(c4cccc(Cl)c4)CC3)cc2-c2nnn[nH]2)c1
c: N#Cc1cc(-c2ccc(NC(=O)C3(c4cccc(Cl)c4)CC3)cc2-c2nnn[nH]2)ccc1Cl
d: CCOc1ccc(-c2ccc(NC(=O)C3(c4cccc(F)c4C)CC3)cc2-c2nnn[nH]2)cn1
e: Cc1cc(-c2ccc(NC(=O)C3(c4cccc(Cl)c4F)CC3)cc2-c2nnn[nH]2)ccn1
Query: Order field: pIC50 | Direction: descending (largest first) Submit the labels in the order that the ranking request calls for.
Response: e, b, d, a, c
(e: 7.64, b: 7.23, d: 6.56, a: 6.04, c: 5.76)

---

Molecular target: human Bradykinin B1 receptor (Homo sapiens)
Construct: host or cells: CHO-K1
Experiment: Calcium flux Assay (FLIPR) with recombinant CHO-K1 cells expressing human Bradykinin B1 receptor, in presence (hB1 IC50) or absence (hB1 free IC50) of 0.1% BSA
Format: cell-based
Settings: in presence of 0.1% BSA, read-out: hB1 IC50
measured.endpoint: IC50 (µM)

compound	experimental.system	IC50, µM
COc1ccc(-c2ccc(NC(=O)C3(c4ccc(C(C)(C)C)cc4)CC3)cc2-c2nnn[nH]2)cc1OC [Example 46]	human Bradykinin B1 receptor (Homo sapiens)	0.141
CCOc1ccc(-c2ccc(NC(=O)C3(c4ccc(F)cc4F)CC3)cc2-c2nnn[nH]2)cn1 [Example 101]	human Bradykinin B1 receptor (Homo sapiens)	0.0387
CCOc1ncc(-c2ccc(NC(=O)C3(c4cccc(Cl)c4F)CC3)cc2-c2nnn[nH]2)cn1 [Example 183]	human Bradykinin B1 receptor (Homo sapiens)	0.033
CCOc1ccc(-c2cc(O)c(NC(=O)C3(c4cccc(Cl)c4)CC3)cc2-c2nnn[nH]2)cn1 [Example 263]	human Bradykinin B1 receptor (Homo sapiens)	0.0345
CCOc1ccc(-c2ccc(NC(=O)C3(c4ccc(F)cc4)CC3)cc2-c2nnn[nH]2)cn1 [Example 81]	human Bradykinin B1 receptor (Homo sapiens)	0.0275

I: COc1cncc(-c2ccc(NC(=O)C3(c4cccc(Cl)c4)CC3)cc2-c2nnn[nH]2)c1 [Example 153]
II: CCOc1ncc(-c2ccc(NC(=O)C3(c4cccc(Cl)c4)CC3)cc2-c2nnn[nH]2)cc1C [Example 160]
III: Cc1ncc(-c2ccc(NC(=O)C3(c4cccc(Cl)c4)CC3)cc2-c2nnn[nH]2)cn1 [Example 194]
Query: Sequence the entries by IC50, beginning with the highest number. Lab note: record answer as labels in requested order.
Response: III, II, I
(III: 0.575 µM, II: 0.0477 µM, I: 0.0262 µM)
